We begin with a simple list: items and their reported folding stability dG.
B1: r4_43_TrROS_Hall (parent)
chain: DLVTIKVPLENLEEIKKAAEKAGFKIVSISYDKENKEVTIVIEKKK

Variants of: B1
Experiment: folding stability dG (cDNA display proteolysis); higher = more stable
Conditions: PBS, room temperature
Endpoint: folding stability dG (kcal/mol)

| Variant label | Endpoint | Scale unit | Measured result |
| --- | --- | --- | --- |
| E34M | folding stability dG | kcal/mol | 3.74 |
| N35H | folding stability dG | kcal/mol | 3.54 |
| L2T | folding stability dG | kcal/mol | 3.93 |
| N35Q | folding stability dG | kcal/mol | 3.54 |
| K21Q | folding stability dG | kcal/mol | 3.9 |
| E20V | folding stability dG | kcal/mol | 3.56 |
| V27E | folding stability dG | kcal/mol | 2.88 |
| K36C | folding stability dG | kcal/mol | 3.19 |
| E20G | folding stability dG | kcal/mol | 3.43 |
| K46T | folding stability dG | kcal/mol | 3.82 |
| K44I | folding stability dG | kcal/mol | 3.93 |
